These data points were gathered from patent US20170334899A1.

# Test system: human cervical tumor cell line HeLa (ATCC CCL-2)
# Test name: SAC-Formation - Nocodazole-Induced Assay
# Format: cell-based
# Condition summary: Homo sapiens, HeLa, 24 h, HeLa cells, nocodazole 0.1 μg/ml together with test compound, decrease of mitotic cells (phospho-histone H3 Ser10)
pIC50: −log10 of the molar value.
Recorded metric: pIC50

Cc1nsc(Nc2cncc(C(F)(F)F)n2)c1C(=O)Nc1ccc(OCCN(C)C(=O)OC(C)(C)C)nc1    7.96
Cc1nsc(Nc2cnc(C(F)(F)F)cn2)c1C(=O)Nc1ccc(OCCCNC(=O)C(F)(F)F)nc1    6.05
Cc1nsc(Nc2cnc(C(F)(F)F)cn2)c1C(=O)Nc1ccc(C(=O)N2CCN(C)CC2)cc1    6.59
Cc1nsc(Nc2cnc(C(F)(F)F)cn2)c1C(=O)Nc1ccc(OCCN)nc1    6.00

[A] Cc1nsc(Nc2cnc(C(F)(F)F)cn2)c1C(=O)Nc1ccc(N(C)C)c(OCCCN(C)CCC(F)(F)F)c1
[B] Cc1nsc(Nc2cnc3ccccc3n2)c1C(=O)Nc1cccc(C(=O)N2CCN(CC(=O)N(C)C)CC2)c1
[C] Cc1nsc(Nc2cnc(C(F)(F)F)cn2)c1C(=O)Nc1ccc(OC[C@H]2CCN(CC(F)(F)F)C2)nc1 (racemic) [Example 133]
Prompt: Sequence the entries by pIC50, beginning with the highest number. Field: ranking. Enter the labels in the order requested.
Response: C, A, B
(C: 7.57, A: 6.36, B: 6.03)

* * *

# Test system: HeLa
# Test name: Proliferation assay (crystal violet), HeLa
# Assay type: cell-based
# Condition summary: Homo sapiens, HeLa, 96 h, HeLa cells; 4 days incubation; crystal violet staining; read-out: IC50 inhibition of proliferation, HeLa
pIC50: −log10 of the molar value.
Recorded metric: pIC50

Cc1nsc(Nc2cnc(C(F)(F)F)cn2)c1C(=O)Nc1ccc(OCC2CCN(CCF)CC2)nc1    6.00
Cc1nsc(Nc2cnc(C(F)(F)F)cn2)c1C(=O)Nc1ccc(OC2CCN(C(=O)OC(C)(C)C)CC2)nc1    6.25
Cc1nsc(Nc2cnc3ccccc3n2)c1C(=O)Nc1cccc(C(=O)NC2CC2)c1    5.21

[a] Cc1nsc(Nc2cnc(C(F)(F)F)cn2)c1C(=O)Nc1cccc(NC(=O)OC(C)(C)C)c1
[b] Cc1nsc(Nc2cnc3ccccc3n2)c1C(=O)Nc1cccc(C(=O)N2CCN(CCc3ccccn3)CC2)c1
Prompt: Between these two entries, a and b , state which has the higher pIC50. Return value: the label identifying the chosen record.
Response: a

* * *

# Assay system: human kinase Mps-1 (Homo sapiens)
# Construct: N-terminally GST-tagged human full length recombinant Mps-1 kinase; GST (N); purchased Invitrogen, Karslruhe, Germany PV4071
# Sequence (P33981 whole entry): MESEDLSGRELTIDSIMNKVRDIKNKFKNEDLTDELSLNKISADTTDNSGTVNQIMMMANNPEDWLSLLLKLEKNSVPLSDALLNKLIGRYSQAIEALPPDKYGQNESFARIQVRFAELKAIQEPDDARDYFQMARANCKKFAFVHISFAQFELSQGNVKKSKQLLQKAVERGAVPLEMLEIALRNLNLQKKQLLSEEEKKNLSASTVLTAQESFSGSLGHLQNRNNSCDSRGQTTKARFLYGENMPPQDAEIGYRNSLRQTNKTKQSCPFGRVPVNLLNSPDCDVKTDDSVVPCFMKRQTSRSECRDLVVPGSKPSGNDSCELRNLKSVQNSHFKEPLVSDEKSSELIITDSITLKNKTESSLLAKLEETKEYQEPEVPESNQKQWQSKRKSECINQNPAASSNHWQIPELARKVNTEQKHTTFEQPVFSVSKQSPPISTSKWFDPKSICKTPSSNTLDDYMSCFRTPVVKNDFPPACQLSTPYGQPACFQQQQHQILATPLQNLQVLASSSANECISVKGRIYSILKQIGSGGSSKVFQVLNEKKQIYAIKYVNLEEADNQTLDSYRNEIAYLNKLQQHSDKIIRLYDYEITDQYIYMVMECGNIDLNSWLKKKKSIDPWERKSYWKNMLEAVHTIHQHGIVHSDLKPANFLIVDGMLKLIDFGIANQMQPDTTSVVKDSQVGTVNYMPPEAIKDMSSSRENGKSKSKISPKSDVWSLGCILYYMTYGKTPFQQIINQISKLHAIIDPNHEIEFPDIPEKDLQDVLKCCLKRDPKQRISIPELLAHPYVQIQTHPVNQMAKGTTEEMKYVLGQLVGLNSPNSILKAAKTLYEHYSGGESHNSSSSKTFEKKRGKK
# Test name: Mps-1 kinase assay (TR-FRET)
# Format: biochemical
# Condition summary: Mps-1 TR-FRET kinase assay; avg; read-out: Mps1 avg (IC50 [mol/l])
# Protocol: The human kinase Mps-1 phosphorylates a biotinylated substrate peptide. Detection of the phosphorylated product is achieved by time-resolved fluorescence resonance energy transfer (TR-FRET) from Europium-labelled anti-phospho-Serine/Threonine antibody as donor to streptavidin labelled with cross-linked allophycocyanin (SA-XLent) as acceptor. Compounds are tested for their inhibition of the kinase activity. […]
Collected IC50 values appear next to each entry.

Below, 8 compounds whose answers are already recorded.
Cc1nsc(Nc2cnc(C(F)(F)F)cn2)c1C(=O)Nc1ccc(F)c(OCC2CCN(CCF)C2)c1 (stereo not shown) [Example 317]    > 20 µM
CC(=O)N1CCC(Oc2ccc(NC(=O)c3c(C)nsc3Nc3cncc(C(F)(F)F)n3)cn2)CC1 [Example 17]    18 µM
Cc1nsc(Nc2cnc3ccccc3n2)c1C(=O)Nc1ccc(OC2CCCNC2)nc1 (stereo not shown) [Example 32]    15 µM
CC(=O)N(C)CCOc1ccc(NC(=O)c2c(C)nsc2Nc2nc3c(C(F)(F)F)cccc3s2)cn1 [Example 112]    ≥ 20 µM
Cc1nsc(Nc2cncc(C(F)(F)F)n2)c1C(=O)Nc1ccc(OCCNC(=O)OC(C)(C)C)nc1 [Example 191]    > 20 µM
Cc1nsc(Nc2cnc3ccccc3n2)c1C(=O)Nc1cccc(C(=O)NC(C)C)c1 [Example 253]    > 20 µM
Cc1nsc(Nc2cnc(C(F)(F)F)cn2)c1C(=O)Nc1ccc(OC2CCN(CCF)C2)nc1 (stereo not shown) [Example 295]    > 20 µM
Cc1cc(C)n(-c2ccccc2NC(=O)c2c(C)nsc2Nc2cnc3ccccc3n2)n1 [Example 243]    > 20 µM

Prompt: Please look at Cc1nsc(Nc2cnc(C(F)(F)F)cn2)c1C(=O)Nc1ccc(OC2CCN(CC(F)F)CC2)c(F)c1 [Example 164] and tell me its recorded IC50 on human kinase Mps-1 (Homo sapiens).
Response: > 20 µM

Prompt: Please look at Cc1nsc(Nc2cnc(C(F)(F)F)cn2)c1C(=O)Nc1ccc(C(=O)NCCN2CCCC(F)C2)cc1 (stereo not shown) [Example 213] and tell me its recorded IC50 on human kinase Mps-1 (Homo sapiens).
Response: > 20 µM

Prompt: Please look at Cc1nsc(Nc2cc(C#N)ccn2)c1C(=O)Nc1cccc(C(=O)N2CCCC2)c1 [Example 114] and tell me its recorded IC50 on human kinase Mps-1 (Homo sapiens).
Response: ≥ 20 µM

Prompt: Please look at Cc1nsc(Nc2cnccn2)c1C(=O)Nc1ccc(OCCCNC(=O)OC(C)(C)C)nc1 [Example 47] and tell me its recorded IC50 on human kinase Mps-1 (Homo sapiens).
Response: ≥ 20 µM

Prompt: Please look at Cc1nsc(Nc2cnc(C(F)(F)F)cn2)c1C(=O)Nc1ccc(C2CCN(CC(F)F)CC2)nc1 [Example 357] and tell me its recorded IC50 on human kinase Mps-1 (Homo sapiens).
Response: > 20 µM

Prompt: Please look at Cc1nsc(Nc2cnc(C(F)(F)F)cn2)c1C(=O)Nc1ccc(OC2CCN(CC(F)F)C2)nc1 (stereo not shown) [Example 296] and tell me its recorded IC50 on human kinase Mps-1 (Homo sapiens).
Response: > 20 µM

Prompt: Please look at Cc1nsc(Nc2cnc3ccccc3n2)c1C(=O)Nc1ccc(Oc2cccc(C(F)(F)F)c2)nc1 [Example 117] and tell me its recorded IC50 on human kinase Mps-1 (Homo sapiens).
Response: ≥ 20 µM

Prompt: Please look at Cc1nsc(Nc2cnc(C(F)(F)F)cn2)c1C(=O)Nc1ccc(F)c(OC2CCN(CC(F)F)CC2)c1 [Example 265] and tell me its recorded IC50 on human kinase Mps-1 (Homo sapiens).
Response: > 20 µM

Prompt: Please look at Cc1nsc(Nc2cnc(C(F)(F)F)cn2)c1C(=O)Nc1ccc(OC2CCNCC2)c(F)c1 [Example 431] and tell me its recorded IC50 on human kinase Mps-1 (Homo sapiens).
Response: > 20 µM

Prompt: Please look at Cc1nsc(Nc2cnc(C(F)(F)F)cn2)c1C(=O)Nc1ccc(O[C@H]2CCN(CC(F)(F)F)C[C@@H]2F)nc1 [Example 363] and tell me its recorded IC50 on human kinase Mps-1 (Homo sapiens).
Response: > 20 µM

Prompt: Please look at Cc1nsc(Nc2cnc3ccccc3n2)c1C(=O)Nc1cccc(-c2nc(C(C)(C)C)no2)c1 [Example 108] and tell me its recorded IC50 on human kinase Mps-1 (Homo sapiens).
Response: ≥ 20 µM

Prompt: Please look at Cc1nsc(Nc2cncc(C(F)(F)F)n2)c1C(=O)Nc1ccc(OC2CCN(CCF)CC2)nc1 [Example 14] and tell me its recorded IC50 on human kinase Mps-1 (Homo sapiens).
Response: ≥ 20 µM

Prompt: Please look at Cc1nsc(Nc2cnc3ccccc3n2)c1C(=O)Nc1ccc(C(=O)O)cc1 [Example 187] and tell me its recorded IC50 on human kinase Mps-1 (Homo sapiens).
Response: 5.4 µM

Prompt: Please look at Cc1nsc(Nc2cnc(C(F)(F)F)cn2)c1C(=O)Nc1ccc(OCCN)nc1 [Example 197] and tell me its recorded IC50 on human kinase Mps-1 (Homo sapiens).
Response: > 20 µM

Prompt: Please look at CCN(CC)CCNC(=O)c1cccc(NC(=O)c2c(C)nsc2Nc2cc(C#N)ccn2)c1 [Example 174] and tell me its recorded IC50 on human kinase Mps-1 (Homo sapiens).
Response: > 20 µM

Prompt: Please look at Cc1nsc(Nc2ccc(C#N)cn2)c1C(=O)Nc1ccc(OCCCNC(=O)OC(C)(C)C)nc1 [Example 46] and tell me its recorded IC50 on human kinase Mps-1 (Homo sapiens).
Response: ≥ 20 µM

Prompt: Please look at Cc1nsc(Nc2ccc(C#N)cn2)c1C(=O)Nc1cccc(NC(=O)OC(C)(C)C)c1 [Example 179] and tell me its recorded IC50 on human kinase Mps-1 (Homo sapiens).
Response: > 20 µM

Prompt: Please look at Cc1nsc(Nc2cnc(C(F)(F)F)cn2)c1C(=O)Nc1ccc(OCCCNC(=O)C(F)(F)F)nc1 [Example 428] and tell me its recorded IC50 on human kinase Mps-1 (Homo sapiens).
Response: > 20 µM

Prompt: Please look at Cc1nsc(Nc2cnc3ccccc3n2)c1C(=O)Nc1cccc(C(=O)N2CCNCC2)c1 [Example 101] and tell me its recorded IC50 on human kinase Mps-1 (Homo sapiens).
Response: 18 µM

Prompt: Please look at Cc1nsc(Nc2cnc(C(F)(F)F)cn2)c1C(=O)Nc1ccc(OC2CCCN(CCC(F)(F)F)C2)nc1 (stereo not shown) [Example 332] and tell me its recorded IC50 on human kinase Mps-1 (Homo sapiens).
Response: ≥ 20 µM

Prompt: Please look at CNC(=O)c1ccc(NC(=O)c2c(C)nsc2Nc2ccc(C#N)cn2)cc1F [Example 208] and tell me its recorded IC50 on human kinase Mps-1 (Homo sapiens).
Response: > 20 µM

Prompt: Please look at Cc1nsc(Nc2cnc(C(F)(F)F)cn2)c1C(=O)Nc1ccc(F)c(OCC2CCCN(CC(F)F)C2)c1 (stereo not shown) [Example 334] and tell me its recorded IC50 on human kinase Mps-1 (Homo sapiens).
Response: ≥ 20 µM

Prompt: Please look at Cc1nsc(Nc2cc(C#N)ccn2)c1C(=O)Nc1cccc(NC(=O)C(C)(C)C)c1 [Example 183] and tell me its recorded IC50 on human kinase Mps-1 (Homo sapiens).
Response: > 20 µM
